test system: CDK2/cyclin A2 (Homo sapiens, UniProt P24941)
Construct: purchased Carna Biosciences, Inc. QS S Assist CDK2/Cyclin A2_FP Kit
assay overview: Human CDK2/cyclin A2 inhibitory activity (QS S Assist CDK2/Cyclin A2_FP Kit, IMAP fluorescence polarization)
Assay type: biochemical
condition label: Human CDK2/cyclin A2 inhibitory activity; read-out: CDK2 Activity symbol

>  <molecule>
CO[C@H](C)c1cc2cnc(Nc3ccc(N4CCNCC4)nn3)nc2c(NCC2CCOCC2)n1 [Compound 358]

>  <IC50>
≥ 100 nM

$$$$
>  <molecule>
CC(C)Nc1nc(C(F)F)cc2cnc(Nc3ccc(CN4CCNCC4)cn3)nc12 [Compound 47]

>  <IC50>
10 to 100 nM

$$$$
>  <molecule>
CO[C@H](C)c1cc2cnc(Nc3ccc(C4CCNCC4)cn3)nc2c(NC(C)C)n1 [Compound 232]

>  <IC50>
≥ 100 nM

$$$$
>  <molecule>
COCC(C)(C)Nc1nc([C@@H](C)O)cc2cnc(Nc3ccc(CN4CCC(OC)CC4)cn3)nc12 [Compound 294]

>  <IC50>
≥ 100 nM

$$$$
>  <molecule>
CC(=O)Nc1ccc(Nc2ncc3cc(C(F)F)nc(NC(C)C)c3n2)nc1 [Compound 86]

>  <IC50>
≥ 100 nM

$$$$
>  <molecule>
CO[C@H](C)c1cc2cnc(Nc3ccc(N4CCCC(N)C4=O)cn3)nc2c(NC(C)C)n1 (stereo partly drawn) [Compound 591]

>  <IC50>
≥ 100 nM

$$$$

---

# maps each entry to its IC50
test system: CDK4/cyclin D3 (Homo sapiens)
Construct: purchased Carna Biosciences, Inc. QS S Assist CDK4/Cyclin D3_FP Kit
Sequence (P11802 whole entry): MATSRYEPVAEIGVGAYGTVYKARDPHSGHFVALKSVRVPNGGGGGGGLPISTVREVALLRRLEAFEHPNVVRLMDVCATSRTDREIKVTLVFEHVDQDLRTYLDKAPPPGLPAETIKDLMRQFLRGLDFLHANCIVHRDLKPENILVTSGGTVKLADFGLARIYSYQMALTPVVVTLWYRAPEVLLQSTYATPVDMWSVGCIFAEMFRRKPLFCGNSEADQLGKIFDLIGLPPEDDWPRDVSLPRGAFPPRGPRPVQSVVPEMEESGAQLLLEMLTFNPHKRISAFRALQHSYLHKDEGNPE
Sequence (P30281 whole entry partner): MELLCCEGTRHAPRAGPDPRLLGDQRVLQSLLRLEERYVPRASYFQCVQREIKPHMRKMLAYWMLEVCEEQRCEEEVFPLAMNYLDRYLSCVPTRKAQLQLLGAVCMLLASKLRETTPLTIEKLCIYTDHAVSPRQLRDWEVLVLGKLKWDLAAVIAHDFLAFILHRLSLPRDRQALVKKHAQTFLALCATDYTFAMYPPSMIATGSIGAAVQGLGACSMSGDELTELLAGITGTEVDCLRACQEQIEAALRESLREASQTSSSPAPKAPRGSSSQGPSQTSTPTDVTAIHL
assay overview: Human CDK4/cyclin D3 inhibitory activity (QS S Assist CDK4/Cyclin D3_FP Kit, IMAP fluorescence polarization)
Type: biochemical
condition label: 50% inhibitory concentration against CDK4/cyclin D3, given as class symbol
parameter: IC50

>  <compound>
CC(C)Nc1nc([C@@H](C)O)cc2cnc(Nc3ccc(C4COCCN4)cn3)nc12 (some centres unmarked) [Compound 798]

>  <readout value>
< 10 nM

$$$$
>  <compound>
CNC(=O)CN1CCN(Cc2ccc(Nc3ncc4cc([C@@H](C)O)nc(NC(C)C)c4n3)nc2)CC1 [Compound 1017]

>  <readout value>
< 10 nM

$$$$
>  <compound>
C[C@@H](O)c1cc2cnc(Nc3ccc(O[C@@H]4CCNC4)cn3)nc2c(N[C@H]2CCCOC2)n1 [Compound 805]

>  <readout value>
< 10 nM

$$$$
>  <compound>
C[C@@H](O)c1cc2cnc(Nc3ccc(N4CCN(C)CC4)nn3)nc2c(N[C@H]2CCCOC2)n1 [Compound 640]

>  <readout value>
< 10 nM

$$$$
>  <compound>
C[C@@H](O)c1cc2cnc(Nc3ccc(CN4CCN(CCO)CC4)cn3)nc2c(NCCC(F)(F)F)n1 [Compound 1214]

>  <readout value>
< 10 nM

$$$$
>  <compound>
CC(C)NC(=O)CN1CCN(c2ccc(Nc3ncc4cc([C@@H](C)O)nc(NC(C)C)c4n3)nn2)CC1 [Compound 968]

>  <readout value>
< 10 nM

$$$$
>  <compound>
Cc1nc(Nc2ncc3cc([C@@H](C)O)nc(NC(C)C)c3n2)ccc1N1CCNCC1=O [Compound 749]

>  <readout value>
< 10 nM

$$$$
>  <compound>
C[C@@H](O)c1cc2cnc(Nc3ccc(N4CCNCC4=O)cn3)nc2c(N(C)[C@H]2CCCOC2)n1 [Compound 872]

>  <readout value>
10 to 100 nM

$$$$
>  <compound>
CC(C)CNc1nc([C@@H](C)O)cc2cnc(Nc3ccc(CN4CCC(O)CC4)cn3)nc12 [Compound 1023]

>  <readout value>
< 10 nM

$$$$
>  <compound>
CCNc1nc([C@@H](C)O)cc2cnc(Nc3ccc(CN4CCN(C)CC4)cn3)nc12 [Compound 1103]

>  <readout value>
< 10 nM

$$$$
>  <compound>
C[C@@H](O)c1cc2cnc(Nc3ccc(CN4CCN(CCO)CC4)cn3)nc2c(NC2CCCC2)n1 [Compound 1070]

>  <readout value>
< 10 nM

$$$$
>  <compound>
CC(C)Nc1nc([C@@H](C)O)cc2cnc(Nc3ccc(N4CCC(C)(CO)CC4)nn3)nc12 [Compound 688]

>  <readout value>
< 10 nM

$$$$
>  <compound>
CC(C)Nc1nc(C2(C)COC2)cc2cnc(Nc3ccc(N4CCN(CC(=O)O)CC4C(F)(F)F)cn3)nc12 (centres unmarked) [Compound 890]

>  <readout value>
10 to 100 nM

$$$$
>  <compound>
CC(C)Nc1nc(C(C)O)cc2cnc(Nc3ccc(OC4CCC(C(=O)O)CC4)cn3)nc12 (single isomer, unassigned) [Compound 832]

>  <readout value>
10 to 100 nM

$$$$
>  <compound>
C[C@@H](O)c1cc2cnc(Nc3ccc(OCC4CCN4)cn3)nc2c(N[C@H]2CCCOC2)n1 (some centres unmarked) [Compound 802]

>  <readout value>
< 10 nM

$$$$
>  <compound>
CCCNc1nc(C(F)F)cc2cnc(Nc3ccc(N4CCNCC4=O)cn3)nc12 [Compound 821]

>  <readout value>
< 10 nM

$$$$
>  <compound>
CO[C@H](C)c1cc2cnc(Nc3ccc(N4CCNCC4)nn3)nc2c(NCC(C)(C)C)n1 [Compound 710]

>  <readout value>
< 10 nM

$$$$

---

test system: CDK4/cyclin D3 (Homo sapiens)
Construct: purchased Carna Biosciences, Inc. QS S Assist CDK4/Cyclin D3_FP Kit
assay overview: Human CDK4/cyclin D3 inhibitory activity (QS S Assist CDK4/Cyclin D3_FP Kit, IMAP fluorescence polarization)
Type: biochemical
condition label: Human CDK4/cyclin D3 inhibitory activity; read-out: CDK4 Activity symbol
# maps each entry to its IC50

>  <compound>
CC(C)Nc1nc(C(F)F)cc2cnc(Nc3ccc(N4CCC(O)CC4)nn3)nc12 [Compound 171]

>  <IC50>
< 10 nM

$$$$
>  <compound>
CO[C@H](C)c1cc2cnc(Nc3ccc(CN4CCNC(=O)C4)cn3)nc2c(NC(C)C)n1 [Compound 176]

>  <IC50>
10 to 100 nM

$$$$
>  <compound>
C[C@@H](O)c1cc2cnc(Nc3ccc(N4CCNCC4)nn3)nc2c(N[C@@H]2CCOC2)n1 [Compound 252]

>  <IC50>
< 10 nM

$$$$
>  <compound>
CC(C)Nc1nc(C(F)F)cc2cnc(Nc3ccc(CN4CCCC(O)C4)cn3)nc12 (stereo not shown) [Compound 128]

>  <IC50>
< 10 nM

$$$$
>  <compound>
CO[C@H](C)c1cc2cnc(Nc3ccc(CN4CCNCC4)cn3)nc2c(NC2CCOCC2)n1 [Compound 291]

>  <IC50>
< 10 nM

$$$$
>  <compound>
CCNc1nc(C(F)F)cc2cnc(Nc3ccc(N4CCNCC4)cn3)nc12 [Compound 20]

>  <IC50>
< 10 nM

$$$$
>  <compound>
CC(C)Nc1nc([C@@H](C)O)cc2cnc(Nc3ccc(N4CC5(CC(N)C5)C4)nn3)nc12 [Compound 576]

>  <IC50>
< 10 nM

$$$$
>  <compound>
CC(C)Nc1nc(C(F)F)cc2cnc(Nc3ccc(CN4CCCCC4C(=O)O)cn3)nc12 (stereo not shown) [Compound 194]

>  <IC50>
< 10 nM

$$$$
>  <compound>
CC(C)Nc1nc(C(F)F)cc2cnc(Nc3ccc(CN4CCNC(C)(C)C4)cn3)nc12 [Compound 174]

>  <IC50>
< 10 nM

$$$$
>  <compound>
CC(C)Nc1nc([C@@H](C)O)cc2cnc(Nc3ccc(N4CCC(O)C(F)(F)C4)nn3)nc12 (stereo partly shown) [Compound 617]

>  <IC50>
< 10 nM

$$$$
>  <compound>
CO[C@H](C)c1cc2cnc(Nc3ccc(N4CC5(CCC5)C4)cn3)nc2c(NC(C)C)n1 [Compound 480]

>  <IC50>
10 to 100 nM

$$$$
>  <compound>
CO[C@H](C)c1cc2cnc(Nc3ccc(N4CC5(CCCN5)C4)cn3)nc2c(NC(C)C)n1 [Compound 486]

>  <IC50>
< 10 nM

$$$$
>  <compound>
CO[C@H](C)c1cc2cnc(Nc3ccc(N4CCCN(C)CC4)nn3)nc2c(NC(C)C)n1 [Compound 488]

>  <IC50>
< 10 nM

$$$$
>  <compound>
CO[C@H](C)c1cc2cnc(Nc3ccc(C4CCN(C(C)=O)CC4)cn3)nc2c(NC(C)C)n1 [Compound 224]

>  <IC50>
< 10 nM

$$$$
>  <compound>
COCc1cc2cnc(Nc3ccc(N4CCNCC4)cn3)nc2c(NC(C)C)n1 [Compound 44]

>  <IC50>
< 10 nM

$$$$
>  <compound>
CC(C)Nc1nc(C(F)F)cc2cnc(Nc3ccc(NS(C)(=O)=O)cn3)nc12 [Compound 88]

>  <IC50>
≥ 100 nM

$$$$
>  <compound>
CC(C)Nc1nc(C(F)F)cc2cnc(Nc3ccc(C4CCOCC4=O)cn3)nc12 (stereo not shown) [Compound 161]

>  <IC50>
< 10 nM

$$$$
>  <compound>
COC(C)c1cc2cnc(Nc3ccc(CN4CCNCC4)cn3)nc2c(NC[C@@H]2CCCO2)n1 (stereo partly shown) [Compound 408]

>  <IC50>
10 to 100 nM

$$$$
>  <compound>
C[C@@H](O)c1cc2cnc(Nc3ccc(N4CCNCC4)nn3)nc2c(N[C@H]2CCOC2)n1 [Compound 251]

>  <IC50>
< 10 nM

$$$$
>  <compound>
CNCCOc1ccc(Nc2ncc3cc([C@@H](C)OC)nc(NC(C)C)c3n2)nn1 [Compound 551]

>  <IC50>
10 to 100 nM

$$$$
>  <compound>
CC(C)Nc1nc([C@@H](C)O)cc2cnc(Nc3ccc(N4CCN(C5CCC5)CC4)nn3)nc12 [Compound 602]

>  <IC50>
< 10 nM

$$$$
>  <compound>
COC(C)c1cc2cnc(Nc3ccc(CN4CCNCC4)cn3)nc2c(NC23CC4CC(CC(O)(C4)C2)C3)n1 (stereo not shown) [Compound 455]

>  <IC50>
< 10 nM

$$$$
>  <compound>
CC(O)c1cc2cnc(Nc3ccc(N4CCNCC4)cn3)nc2c(N(C)C2CCOCC2)n1 (stereo not shown) [Compound 11]

>  <IC50>
10 to 100 nM

$$$$
>  <compound>
C[C@@H](O)c1cc2cnc(Nc3ccc(N4CCNCC4)nn3)nc2c(NC(C)(C)CC(=O)O)n1 [Compound 327]

>  <IC50>
10 to 100 nM

$$$$
>  <compound>
CC(C)Nc1nc(C(F)F)cc2cnc(Nc3ccc(CCO)cn3)nc12 [Compound 134]

>  <IC50>
< 10 nM

$$$$
